Source: patent US8952024B2

Test system: groundsel (common groundsel, Senecio vulgaris)
Assay Comment: Test D pre-/postemergence plant response
Format: in vivo
Condition Set: Postemergence, 62 g ai/ha; scale 0 to 100 (0 no effect, 100 complete control)
Measurement Type: Plant response rating, Groundsel
Numbers only.

Observe how each entry below is paired with its result.
Compound | Target Entity | Observed
CCCCn1c(-c2cc(F)cc(F)c2)ncc(C(=O)C2=C(O)C3CCC(C3)C2=O)c1=O (centres unmarked) [Compound 245] | groundsel (common groundsel, Senecio vulgaris) | 100
COCCn1c(-c2cccc(F)c2)ncc(C(=O)C2=C(O)C3CCC(C3)C2=O)c1=O (centres unmarked) [Compound 235] | groundsel (common groundsel, Senecio vulgaris) | 100
COCCn1c(-c2cccc(C)c2)ncc(C(=O)C2=C(O)C3CCC(C3)C2=O)c1=O (centres unmarked) [Compound 233] | groundsel (common groundsel, Senecio vulgaris) | 90
O=C1CCCC(O)=C1C(=O)c1cnc(-c2ccccc2)n(CC2CCCO2)c1=O (centres unmarked) [Compound 59] | groundsel (common groundsel, Senecio vulgaris) | 100

For the compound COCCn1c(-c2ccccc2)ncc(C(=O)C2=C(O)CCCC2=O)c1=O [Compound 85] , give its measured Plant response rating, Groundsel value. 100
